Values compiled from PubChem BioAssay (NCATS).

# method_summary: qHTS of pediatric cancer cell lines to identify multiple opportunities for drug repurposing: Primary screen for SK-N-SH cells (AID 1347098); also: nearly all actives have a fitted effect of over 65% in size
# stated_conditions: SK-N-SH viability, CellTiter-Glo luminescence, 48 h; series mostly up to 57 µM
Inconclusive results are not listed. Calls of active or inactive are those of the source. Calls follow the shape of the dose curve; as a rule, active = well fitted cell-killing curve with a large enough effect; inconclusive = small, poorly fitted or top-dose-only effect; inactive = no such curve, though single readings can be large or run the other way.
Outcome field: choose from active, inactive

Worked examples follow.
{"molecule": "CC(=O)O[C@@H]1CC2C3CCc4cc(OC(=O)c5ccccc5)ccc4C3CCC2(C)[C@H]1OC(C)=O (some centres not stated)", "group": "inactive"}
{"molecule": "NC(=O)C1(N2CCCCC2)CCN(CCCN2c3ccccc3CCc3ccc(Cl)cc32)CC1", "group": "active"}
{"molecule": "Oc1ccccc1-c1nnco1", "group": "inactive"}
{"molecule": "OC1(c2ccccc2)CCNCC1", "group": "inactive"}
{"molecule": "CN1C(=O)c2ccccc2C1=O", "group": "inactive"}

Task: Can you look up the reported call for `CCOC(=O)NNc1nncc2ccccc12` for me?
Result: inactive

Task: Can you look up the reported call for `CC(C)C(C)(C)C(C)(C)C(C)(C)S` for me?
Result: inactive

Task: Can you look up the reported call for `CO/N=C(/C(=O)N[C@@H]1C(=O)N2C(C(=O)[O-])=C(C[n+]3ccn4ncccc43)CS[C@H]12)c1nsc(N)n1` for me?
Result: inactive

====

# method_summary: qHTS of pediatric cancer cell lines to identify multiple opportunities for drug repurposing: Primary screen for SK-N-MC cells (AID 1347093); also: potency is read from the fitted curve at half-maximal effect
# stated_conditions: SK-N-MC viability, CellTiter-Glo luminescence, 48 h; series mostly up to 46 µM
Results filed as inconclusive are left out. Activity calls are given as the source filed them. The call rests on the fitted dose curve; in most records, active means well fitted cell-killing curve with a large enough effect; inconclusive means small, poorly fitted or top-dose-only effect; inactive means no such curve, though single readings can be large or run the other way. Where a SMILES comes first, the peptide text is derived from it.
measured_property: Potency

Observe how each entry below is paired with its result.
{"compound": "CC(=O)OCC(=O)[C@@]1(O)CCC2C3CCC4=CC(=O)CC[C@]4(C)C3[C@@H](O)C[C@@]21C (some centres not stated)", "Potency": "inactive"}
{"compound": "CCOC(=O)c1ccc(OCCN2C[C@H](O)[C@@H](O)[C@H](O)[C@H]2CO)cc1", "Potency": "inactive"}
{"compound": "O=C1CC2(CCCC2)CC(=O)N1CCNCC1COc2ccccc2O1 (configuration not stated)", "Potency": "inactive"}
{"compound": "CCCCC/C=C\\C/C=C\\CCCCCCCC(=O)NC(C)c1ccccc1 (configuration not stated)", "Potency": "18.8 µM (active)"}
{"compound": "CC(C)C(=O)Nc1cccc(C(F)(F)F)c1", "Potency": "inactive"}

Task: For the compound `O=C(CCCCCCCCC#CI)Oc1ccccc1` , what Potency is on record?
Result: inactive

Task: For the compound `O=C(O)Cc1ccccc1Oc1ccc(Cl)cc1Cl` , what Potency is on record?
Result: inactive

Task: For the compound CC(=O)N[C@@H](CO)C(=O)N[C@@H](CC(=O)O)C(=O)N[C@@H](CCCCN)C(=O)N1CCC[C@H]1C(=O)O (Ac-SDKP-OH) , what Potency is on record?
Result: inactive

Task: For the compound `CCCCCC(=O)O[C@]1(C(C)=O)CC[C@H]2[C@@H]3CCC4=CC(=O)CC[C@]4(C)[C@H]3CC[C@@]21C` , what Potency is on record?
Result: 13.3 µM (active)

Task: For the compound `Cc1[nH]cnc1-c1ccc(Cl)cc1` , what Potency is on record?
Result: inactive

Task: For the compound `C=CC[N+]1([C@H]2C[C@H]3[C@@H]4CC[C@H]5C[C@H](OC(C)=O)[C@@H](N6CCCCC6)C[C@]5(C)[C@H]4CC[C@]3(C)[C@H]2OC(=O)CC)CCCCC1` , what Potency is on record?
Result: inactive

Task: For the compound `COC(=O)/C=C\C(=O)OC` , what Potency is on record?
Result: inactive

Task: For the compound Cc1cccc(OCC(O)CNC(C)(C)C)c1C (configuration not stated) , what Potency is on record?
Result: inactive

Task: For the compound CC(=O)N(CC(O)CO)c1c(I)c(C(=O)NCCO)c(I)c(C(=O)NCC(O)CO)c1I (configuration not stated) , what Potency is on record?
Result: inactive

Task: For the compound `Cc1ccc(-c2ccccc2C#N)cc1` , what Potency is on record?
Result: inactive

Task: For the compound `COc1ccc(-n2nc(CCC(=O)N(C)O)cc2-c2ccc(Cl)cc2)cc1` , what Potency is on record?
Result: 23.7 µM (active)

Task: For the compound `O=C(O)Cn1c(=O)n(Cc2ccc(Br)cc2F)c(=O)c2ccc(Cl)cc21` , what Potency is on record?
Result: inactive

====

# method_summary: P-glycoprotein substrates identified in KB-8-5-11 adenocarcinoma cell line, qHTS therapeutic library screen (AID 1346987); also: nearly all actives have a fitted effect of over 65% in size
# stated_conditions: KB-8-5-11 (P-gp overexpressing) viability, CellTiter-Glo, 72 h; series mostly up to 44.5 µM
Inconclusive results are not listed. The source made the active and inactive calls. Calls come from the whole dose curve; as a rule, active = well fitted inhibition curve with a large enough effect; inconclusive = small, poorly fitted or top-dose-only effect; inactive = flat fitted curve, though single readings scatter.

{"substance_smiles": "COc1cc(C=O)ccc1O", "outcome": "inactive"}
{"substance_smiles": "Nc1ccc(O)cc1", "outcome": "inactive"}
{"substance_smiles": "COc1cc(NS(=O)(=O)c2ccc(N)cc2)nc(C)n1", "outcome": "inactive"}

====

# System: Es-2
# method_summary: Primary qHTS to identify gynecologic anti-cancer compounds using libraries of approved drugs and bioactive compounds (AID 1345084); also: nearly all actives have a fitted effect of over 55% in size
# stated_conditions: Gynecologic cancer cell panel viability, ATPlite luminescence, 48 h; series mostly up to 57.5 µM
Records with an inconclusive call do not appear. Active and inactive are the calls of the source. Calls come from the whole dose curve; as a rule, active = well fitted cell-killing curve with a large enough effect; inconclusive = small, poorly fitted or top-dose-only effect, or effect the other way; inactive = flat fitted curve, though single readings scatter.
Outcome field: choose from true for active, false for inactive

Worked examples follow.
{"compound": "Cc1cc2nc3ccc(=[N+](C)C)cc-3sc2cc1N", "group": "true"}
{"compound": "CC1(C)O[C@@H]2C[C@H]3[C@@H]4CCC5=CC(=O)C=C[C@]5(C)[C@@]4(F)[C@@H](O)C[C@]3(C)[C@]2(C(=O)CO)O1", "group": "false"}
{"compound": "CN1C(=O)CC(C)(c2ccccc2)C1=O (configuration not stated)", "group": "false"}

Task: Can you look up the reported call for `CN=C(N)NC(=O)Nc1c(C)cccc1C` for me?
Result: false

Task: Can you look up the reported call for `Cc1ccc(-c2ccccc2C#N)cc1` for me?
Result: false

Task: Can you look up the reported call for `CCC(CN)=C(c1ccccc1)c1ccccc1` for me?
Result: false

Task: Can you look up the reported call for `CC(=O)OC/C=C(C)/C=C/C=C(C)/C=C/C1=C(C)CCCC1(C)C` for me?
Result: false

====

# method_summary: Primary qHTS for small molecule stabilizers of the endoplasmic reticulum resident proteome: Secreted ER Calcium Modulated Protein (SERCaMP) assay (AID 1508630)
# stated_conditions: SH-SY5Y GLuc-SERCaMP (Gaussia luciferase released on ER calcium loss) secretion, thapsigargin, luminescence; series mostly up to 38.4 µM
# Excerpt: Assay Provider: Brandon K. Harvey Ph.D. National Institute on Drug Abuse, National Institutes of Health, Baltimore, MD Endoplasmic reticulum (ER) dysregulation is associated with human pathologies including neurodegenerative, cardiovascular, muscular, and diabetic conditions. […] To identify such compounds, we performed a quantitative high-throughput screen (qHTS) using the SERCaMP assay, which monitors secretion of ER resident proteins triggered by calcium depletion. […]
Inconclusive results are not listed. Active and inactive are the calls of the source. The call rests on the fitted dose curve; in most records, active means well fitted inhibition curve with a large enough effect; inconclusive means small, poorly fitted or top-dose-only effect; inactive means no such curve, though single readings can be large or run the other way.
measured_property: outcome

Observe how each entry below is paired with its result.
{"molecule": "O=c1[nH]c(=O)n([C@H]2O[C@H](CO)[C@@H](O)[C@@H]2O)cc1/C=C\\Br", "outcome": "inactive"}
{"molecule": "COc1ccc2c(c1)CCCC2=O", "outcome": "inactive"}
{"molecule": "CC1(C)OC(=O)Nc2ccc(Br)cc21", "outcome": "inactive"}
{"molecule": "COc1cc(C(=O)NC2CCCNC2)cc(OC)c1OC (configuration not stated)", "outcome": "inactive"}
{"molecule": "CCCC(=O)O[C@]1(C(=O)CCl)[C@@H](C)C[C@H]2[C@@H]3CCC4=CC(=O)C=C[C@]4(C)[C@@]3(F)C(=O)C[C@@]21C", "outcome": "inactive"}

Task: For the molecule `COc1cc2c(cc1OC)CN(C(=O)[C@H](C)N[C@@H](CCc1ccccc1)C(=O)O)[C@H](C(=O)O)C2` , what outcome is on record?
Result: inactive

Task: For the molecule `Cc1cccc(N(C)C(=S)Oc2ccc3c(c2)CCC3)c1` , what outcome is on record?
Result: inactive

Task: For the molecule `O=C(OCC(COC(=O)c1cccnc1)(COC(=O)c1cccnc1)COC(=O)c1cccnc1)c1cccnc1` , what outcome is on record?
Result: inactive

Task: For the molecule COc1cc(C(=O)OC(COCCC(C)C)CN2CCOCC2)cc(OC)c1OC (configuration not stated) , what outcome is on record?
Result: inactive
